- MEASUREMENT TARGET: T1, truncated hTfR1 of SEQ ID NO:122 (human, UniProt P02786 122-760)
- T1 construct: also called human TfR1; Human TfR1
- T1 sequence (P02786 other isoform, or with tags, fused parts or gaps limits assumed): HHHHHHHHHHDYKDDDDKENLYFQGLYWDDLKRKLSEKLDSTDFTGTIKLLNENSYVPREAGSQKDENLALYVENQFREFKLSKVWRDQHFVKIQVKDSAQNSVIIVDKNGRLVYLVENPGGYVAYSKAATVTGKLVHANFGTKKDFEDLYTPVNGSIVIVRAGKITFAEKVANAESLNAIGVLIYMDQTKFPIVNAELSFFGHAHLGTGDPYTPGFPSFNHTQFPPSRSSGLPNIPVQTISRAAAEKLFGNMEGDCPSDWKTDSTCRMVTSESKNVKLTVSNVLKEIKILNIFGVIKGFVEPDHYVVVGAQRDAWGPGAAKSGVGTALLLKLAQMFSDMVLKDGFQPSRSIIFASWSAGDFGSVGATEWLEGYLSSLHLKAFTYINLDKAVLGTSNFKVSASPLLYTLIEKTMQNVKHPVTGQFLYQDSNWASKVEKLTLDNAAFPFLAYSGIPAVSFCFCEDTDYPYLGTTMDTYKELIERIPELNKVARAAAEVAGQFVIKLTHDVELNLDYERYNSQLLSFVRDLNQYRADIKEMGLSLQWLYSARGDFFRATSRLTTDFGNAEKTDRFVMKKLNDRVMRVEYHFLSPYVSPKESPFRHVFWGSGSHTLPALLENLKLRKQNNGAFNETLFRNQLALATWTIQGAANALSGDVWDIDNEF
- PROTOCOL DETAILS: SPR, TfR1 amine-coupled, Fab injected, 1:1 fit
Give pKd for every item shown.
Just so you know, pKd here is -log10 of the concentration in molar units; reply with that number alone.

// query pKd for h26D3 variant HC8 Fab (Fab, V domains shown, Single-mutant His-tagged Fab; also called Y60A) VH: EVQLVQSGAEVKKPGSSVKVSCKASGYIFTDYNMDWVRQAPGQGLEWIGDINPDYDTTSANEKFKGRATLTVDKSTSTAYMELSSLRSEDTAVYYCARGGYSGSSYYHPMDYWGQGTLVTVSS VL: DIQMTQSPSSVSASVGDRVTITCKSSQSLLYSTNQKNYLAWYQQKPGKAPKLLIYWASTRESGVPSRFSGSGSGTDFTLTISSLQPEDFATYYCQQYFIYPRTFGQGTKVEIK ?
// result 8.00

// query Field request: pKd | item: h26D3 variant HC2 Fab (Fab, V domains shown, Single-mutant His-tagged Fab; also called Y32A) VH: EVQLVQSGAEVKKPGSSVKVSCKASGYIFTDANMDWVRQAPGQGLEWIGDINPDYDTTSYNEKFKGRATLTVDKSTSTAYMELSSLRSEDTAVYYCARGGYSGSSYYHPMDYWGQGTLVTVSS VL: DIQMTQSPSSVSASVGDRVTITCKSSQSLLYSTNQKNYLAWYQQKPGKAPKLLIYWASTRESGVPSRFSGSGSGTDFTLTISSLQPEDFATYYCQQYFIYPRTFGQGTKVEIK
// result 8.06

// query Which pKd reading was recorded for the binder h26D3 variant HC5 Fab (Fab, V domains shown, Single-mutant His-tagged Fab; also called D54A) VH: EVQLVQSGAEVKKPGSSVKVSCKASGYIFTDYNMDWVRQAPGQGLEWIGDINPAYDTTSYNEKFKGRATLTVDKSTSTAYMELSSLRSEDTAVYYCARGGYSGSSYYHPMDYWGQGTLVTVSS VL: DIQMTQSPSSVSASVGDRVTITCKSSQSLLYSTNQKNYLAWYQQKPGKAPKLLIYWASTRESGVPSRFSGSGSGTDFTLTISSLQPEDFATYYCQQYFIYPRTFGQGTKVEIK ?
// result 7.70

These data points were gathered from patent US20250388664A1.
